Each entry below lists one item and its recorded self-cleavage kobs at 2500 uM GlcN6P value.
B1: glmS ribozyme (parent)
chain: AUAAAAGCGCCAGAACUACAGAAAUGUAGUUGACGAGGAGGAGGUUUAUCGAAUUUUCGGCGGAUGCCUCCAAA

Variants of: B1
assay_details: self-cleavage kobs at 2500 uM GlcN6P; higher = faster cleavage; RNA array
condition_context: with glucosamine-6-phosphate
Fewer inactive variants are shown than the library holds.
Please reply with the bare figure in s⁻¹ and do not write the unit itself.

residue_codes	observed_property	test_value
AUAAAAGCGCCAGAACUACAGAAAUGUAGUUGUCGAGGAGGAGGUUAAUCGAACUUUCGGCGGAUGCCUCCAAA [A33U U47A U54C]	self-cleavage kobs at 2500 uM GlcN6P	4.24e-05

Next, consider the following variant.
Give the measured self-cleavage kobs at 2500 uM GlcN6P of AUAAAAGCGCCAGAACUACAGAAAUUUAGUUGACGAGGAGGAGGUUUAUCGAAUUUUCGGCGGAGGCCUCCAAA [G26U U65G] .
0.00291

Data origin, for the record: the supplement of paper PMC7125110
